meta.source: patent US9346809B2

Target: JAK3 (catalytic domain, His-tag) (Homo sapiens)
Construct: All four purified enzymes contain only the catalytic domain; His (N); purchased Carna Biosciences, Inc; host or cells: baculovirus expression system
Sequence (P52333 822-1111 limits assumed): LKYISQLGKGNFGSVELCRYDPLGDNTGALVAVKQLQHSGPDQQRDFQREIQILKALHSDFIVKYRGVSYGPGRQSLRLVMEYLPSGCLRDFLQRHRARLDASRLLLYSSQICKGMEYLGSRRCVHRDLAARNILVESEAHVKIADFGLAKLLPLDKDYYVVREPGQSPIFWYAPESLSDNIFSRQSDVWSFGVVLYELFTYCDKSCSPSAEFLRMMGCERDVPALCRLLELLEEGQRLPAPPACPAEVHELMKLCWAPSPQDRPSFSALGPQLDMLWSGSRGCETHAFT
Assay: JAK kinase assay (HTRF, phosphorylation of TK substrate-biotin), JAK3
Type: biochemical
Settings: ATP at Km (2 μM); read-out: JAK3 kinase inhibitory activity (EC50 indicator)
pEC50: −log10 of the molar value.
OUTCOME MEASURE: pEC50

| STRUCTURE SMILES STRING | OBSERVED MEASUREMENT |
| --- | --- |
| CS(=O)(=O)c1cccc(C(=O)N2C3CCC2CN(c2ncnc4[nH]ccc24)C3)c1 | 6.30 to 7.00 |
| CC(=O)OCC(=O)Nc1nc(N2CCN(C(=O)Cc3ccc(C#N)cc3)C3(CC3)C2)c2cc[nH]c2n1 | > 7.00 |
| N#Cc1cccc(C(=O)N2[C@@H]3CC[C@@H]2CN(c2ncnc4[nH]ccc24)C3)c1 | > 7.00 |
| O=C(CCc1ccccc1)N1CCN(c2ncnc3[nH]ccc23)CC12CC2 | 6.30 to 7.00 |
| O=C(CCc1ccccc1)N1[C@@H]2CC[C@@H]1CN(c1ncnc3[nH]ccc13)C2 | 6.30 to 7.00 |
| O=C(c1ccc2[nH]ccc2c1)N1CCN(c2ncnc3[nH]ccc23)CC12CC2 | > 7.00 |
| O=C(Cc1c[nH]c2ccccc12)N1[C@@H]2CC[C@@H]1CN(c1ncnc3[nH]ccc13)C2 | 6.30 to 7.00 |
| O=C(O)C1(C(=O)N2CCN(c3ncnc4[nH]ccc34)CC23CC3)CC1 | < 6.30 |
| CC(C)S(=O)(=O)c1ccc(C(=O)N2CCN(c3ncnc4[nH]ccc34)CC23CC3)cc1 | 6.30 to 7.00 |
| Cc1cc2[nH]c(C(=O)N3[C@@H]4CC[C@H]3CN(c3ncnc5[nH]ccc35)C4)cc2cc1F | 6.30 to 7.00 |
| O=C(c1ccccc1)N1[C@@H]2CC[C@H]1CN(c1ncnc3[nH]ccc13)C2 | 6.30 to 7.00 |
| Cc1ccc2[nH]c(C(=O)N3CCN(c4ncnc5[nH]ccc45)CC34CC4)cc2c1 | > 7.00 |
| Cc1c[nH]c2ncnc(N3CCN(C(=O)c4cccc(C#N)c4)C4(CC4)C3)c12 | < 6.30 |
| NS(=O)(=O)c1ccc(CC(=O)N2CCN(c3ncnc4[nH]ccc34)CC23CC3)s1 | > 7.00 |
| O=C(c1ccc(=O)[nH]c1)N1CCN(c2ncnc3[nH]ccc23)CC12CC2 | 6.30 to 7.00 |
| N#Cc1ccc(CC(=O)N2CCN(c3ccnc4[nH]ccc34)CC23CC3)cc1 | > 7.00 |
